I'd be grateful if you could share measured RP-LC retention time for these entries.
PROTOCOL_TEXT: gradient 5% acetonitrile 3 min, to 50% in 2 min, to 85% in 15 min, held 3 min, 100 µL/min
RECORDED_CONDITIONS: column: Zorbax Extend-C18 2.1 x 50 mm; eluents: water / acetonitrile, 0.1% formic acid
I only need the number, in s, no unit after it.

Data request: Please report the recorded RP-LC retention time for `Cn1nc(-c2nc(C3CC3)no2)c2c1CCN(C(=O)Nc1ccccc1)C2` .
Data returned: 809

Data request: Please report the recorded RP-LC retention time for `CCC(=O)N1CCc2c(sc3ncnc(N4CCN(C)CC4)c23)C1` .
Data returned: 546

Data request: Please report the recorded RP-LC retention time for `O=C(NC1CCCCCC1)C1=C2CCCN2c2ccc(F)cc2S1(=O)=O` .
Data returned: 970

Data request: Please report the recorded RP-LC retention time for `COc1ccc(CNC(=O)CN2C(=O)NC3(CCCCC3)C2=O)cc1OC` .
Data returned: 659

Data request: Please report the recorded RP-LC retention time for `Cc1ccc(Cn2cc(CCC(=O)N3CCN(c4ccccn4)CC3)c3ccccc32)cc1` .
Data returned: 777

Data request: Please report the recorded RP-LC retention time for `O=C(NCc1cccs1)C1CCN(Cc2cc3ccccc3n2Cc2ccc(F)cc2)CC1` .
Data returned: 783

Data request: Please report the recorded RP-LC retention time for `Cc1nc(-c2cn(C(C)C)c3ncccc23)sc1C(=O)NCCN1CCOCC1` .
Data returned: 630

Data request: Please report the recorded RP-LC retention time for Cc1ccc(CN2CCCN(CC(=O)NC(C)CCc3ccccc3)S2(=O)=O)cc1 (stereo not given) .
Data returned: 1050

Data request: Please report the recorded RP-LC retention time for `Cc1sc(-c2cc(C(F)(F)F)on2)cc1S(=O)(=O)Nc1ccccc1` .
Data returned: 1130

Data request: Please report the recorded RP-LC retention time for `Cc1cc(C)c(NC(=O)Cn2cnc3nc(N4CCC(C(=O)NC5CC5)CC4)sc3c2=O)c(C)c1` .
Data returned: 754

Data request: Please report the recorded RP-LC retention time for `CCOC(=O)c1c(C)c(C(=O)Nc2cccc(C)c2C)c(C)n1C` .
Data returned: 882

Data request: Please report the recorded RP-LC retention time for `Cc1ccnc(Nc2nc(-c3ccc(Cl)cc3)cs2)c1` .
Data returned: 947

Data request: Please report the recorded RP-LC retention time for Cc1ccccc1CNC(=O)C1(C)CCCN(C(=O)Nc2ccccc2Cl)C1 (stereo not given) .
Data returned: 1010

Data request: Please report the recorded RP-LC retention time for `CC(=O)c1ccc(NC(=O)CCn2nc(C)nc2C)cc1` .
Data returned: 557

Data request: Please report the recorded RP-LC retention time for `CCOc1ccc(CC(=O)Nc2cc(-c3cccnc3)no2)cc1` .
Data returned: 760

Data request: Please report the recorded RP-LC retention time for O=C(CCCN1C(=O)C2C3C=CC(C3)C2C1=O)N1CCN(c2ccc(F)cc2)CC1 (stereo not given) .
Data returned: 800

Data request: Please report the recorded RP-LC retention time for `CN(CC(=O)N1CCN(c2ccccc2)CC1)S(=O)(=O)c1ccc2c(c1)CCCC(=O)N2` .
Data returned: 737

Data request: Please report the recorded RP-LC retention time for Cc1ccc(-c2noc(C3CCCN3C(=O)CNS(=O)(=O)c3ccc(Cl)cc3)n2)cc1 (stereo not given) .
Data returned: 1030

Data request: Please report the recorded RP-LC retention time for `CCOc1ccc(C(=O)N2CCN(c3nc(CN4CCOCC4)cs3)CC2)cc1` .
Data returned: 615

Data request: Please report the recorded RP-LC retention time for `COc1ccc(Cl)cc1NS(=O)(=O)c1cc2n(c1)CCN(C(C)C)C2=O` .
Data returned: 803

Values compiled from the METLIN SMRT retention time set (Domingo-Almenara et al. 2019).
